The origin of these recorded values is PubChem BioAssay (NCI).

# Tested on: SF-295 CNS
# Experiment summary: NCI tumour cell line growth inhibition, 48 h
Readout type: TGI

Using the record for CN(C)C(=S)/N=c1\ss/c(=N\S(=O)(=O)c2ccccc2)n1-c1ccccc1 , report its TGI.
> 100 µM

Using the record for COC1OC2COC(C)(C)OC2C2OC(C)(C)OC12 (stereo not drawn) , report its TGI.
> 100 µM

Using the record for COc1ccc(N2C(=O)C3c4[nH]c5ccccc5c4C4C(C)CCCC4C3C2=O)cc1 (stereo not drawn) , report its TGI.
> 100 µM

---

In this section, each of the molecules is paired with its reported TGI.
# Test system: MALME-3M melanoma
# Experiment summary: NCI tumour cell line growth inhibition, 48 h

As a guide, the following entries are already answered.
Using the record for Nc1ccc(SC23CC4CC(CC(C4)C2)C3)cc1 , report its TGI.
> 100 µM

Using the record for COc1cc2c(cc1O)CC[n+]1cc3c(OC)c(OC)ccc3cc1-2 , report its TGI.
> 100 µM

Using the record for COC(=O)/C(=N\NC(=S)NN)C(C(=O)C(=O)Nc1ccccc1C(N)=O)c1nc2ccccc2[nH]c1=O (configuration not stated) , report its TGI.
> 100 µM

Using the record for Clc1ccc(CNc2nc3ccccc3nc2-c2cccs2)c(Cl)c1 , report its TGI.
> 100 µM

Using the record for CCn1c(-c2nonc2N)nc2ccc(F)cc21 , report its TGI.
> 25 µM

Further cases:
Using the record for CCOC(=O)[C@@H](C)C[C@H](Cc1ccccc1)NC(=O)c1csc([C@@H](C[C@H](C(C)C)N(C)C(=O)[C@@H](NC(=O)[C@H]2CCCCN2C)C(C)(C)C)OC(C)=O)n1 , report its TGI.
> 16.7 µM

Using the record for COc1ccc(/C=C/C(=O)c2sc(-n3nc(-c4ccccc4)cc3-c3ccccc3)nc2C)cc1OC , report its TGI.
> 100 µM
